Values compiled from PubChem BioAssay (NCI).

- Test system: K-562 leukemia
- METHOD SUMMARY: NCI-60 one-dose screen, 48 h (100 = growth as untreated, 0 = no growth, -100 = all killed)
- CONDITION DESCRIPTION: 10 µM unless noted
- Description: Cells are grown in 96 well plates and exposed to the test compound for 48 hours. Compounds are tested at a single concentration, which is 10^-5 M for most compounds. The reported endpoint is percent growth (GI% or GIPRCNT), where numbers from 0 - 100% represent growth inhibition, and numbers from -100% - 0 represent cell death. For example, a value of 40 represents 60% growth inhibition. A value of 0 means no net growth occurred over the course of the experiment. […]
This is part of a sample that, as a whole, favours compounds with a hit. Of some 83,000 tested, about 20% had one in any assay. Calls of active or inactive are those of the source. How the source made its calls: active means growth percent below 10; inactive means the rest.
READOUT NAME: growth

Answered cases to consult:
* O=C(OCCOCCO)N(c1cccc(Br)c1)c1nc(SCCN2CCOCC2)nc2c1cnn2CC(Cl)c1ccc(Br)cc1 (stereo unspecified) | 2.12% (active)
* CC1=C(C(=O)Nc2ccccc2)C(c2ccc3ccccc3c2)n2c(nc3ccccc32)N1 (stereo unspecified) | 43.8% (inactive)
* O=C(N/N=C/c1ccc(Br)o1)c1[nH]c2ccc(Br)cc2c1-c1ccccc1 | 7.92% (active)
* NS(=O)(=O)c1ccc(Nc2nc(N/N=C/c3cc(Br)c(O)c(Br)c3)nc(Nc3ccccc3)n2)cc1 | 14.3% (inactive)
* CN1C(=O)C2(C(C#N)=C(c3ccc(Cl)cc3)Nc3c2c(-c2ccccc2)nn3-c2ccccc2)c2ccccc21 (stereo unspecified) | 40.8% (inactive)

According to the records, this molecule "COc1ccc(-c2cc(C(=O)Oc3ccc(C=O)cc3OC)nn2-c2ccc(S(C)(=O)=O)cc2)cc1" displays growth of 96.1% (inactive)

Just so you know, measured growth for "COc1ccc(C(=O)C[n+]2cccc3c4ccccc4ccc32)cc1" came out at 16.4% (inactive)

The molecule listed as "COc1cc(CNC(=O)C[C@H](C)CCC=C(C)C)ccc1OCc1cn(-c2ccc(Cl)cc2Cl)nn1" shows growth equal to 81.4% (inactive)

Form: molecule = "O=CNc1ccc(-n2cnc3cc(-c4ccc(O)cc4)ccc32)cc1" ; growth = 64.7% (inactive)

growth measured on "O=C1Nc2ccccc2/C1=C\c1ccc(OCC(=O)c2ccc(Br)cc2)cc1" = 27.8% (inactive)

Just so you know, measured growth for "Cc1ccc(C(=O)Nc2cc(-c3ccncc3)cc(C(F)(F)F)c2)cc1C#Cc1cnc2cccnn12" came out at 2.38% (active)

---

- Tested on: T-47D breast
- METHOD SUMMARY: NCI-60 one-dose screen, 48 h
- CONDITION DESCRIPTION: 10 µM unless noted
The panel holds about 83,000 compounds, 20% with a hit somewhere; the sample as a whole holds those more often. The source made the active and inactive calls. Rule for the calls: active = growth percent below 10; inactive = the rest.
In this exercise, the only acceptable responses are yes = active, no = inactive

* O=C(Cc1c(-c2cccc([N+](=O)[O-])c2)n(-c2ncnc3c2c(-c2ccccc2)c(-c2ccccc2)n3Cc2ccccc2)[nH]c1=O)c1ccc(Cl)c(Cl)c1 | yes
* O=C(CSc1nc2sc3c(c2c(=O)n1-c1ccc(Cl)cc1)CCCC3)NNC(=O)c1ccc(F)cc1 | no
* C/C(=N/O)c1ccc(NC(=O)CSc2nnc(-c3ccc(-c4nc5ccc(Cl)cc5[nH]4)cc3)o2)cc1 | no

Answer briefly: the call reported for "COc1cccc2nc(Nc3cccc(NC(=O)c4ccc(CN5CCN(C)CC5)c(C(F)(F)F)c4)c3)ccc12" in this assay. yes

Write down the call the test reported for this compound. Item: "CCCN(CCC)S(=O)(=O)c1ccc(C(=O)O)cc1.CCCN(CCC)S(=O)(=O)c1ccc(C(=O)O)cc1.[Cl][Pt+2][Cl].[NH2-].[NH2-]" no

In this assay, the call recorded for "COc1ccc2[nH]c(=O)c(CSc3ccccc3Nc3nccc(-c4ccc5c(c4)OCO5)n3)cc2c1" was what? no

Test call, this compound: "CC(C)(C)OC(=O)N1C/C(=C\c2ccc(F)cc2)C(=O)/C(=C/c2ccc(F)cc2)C1" no

Give the logged outcome of this assay for the following compound: "COc1c(B(O)O)cc(F)cc1-c1nc2ccc3[nH]ncc3c2c2c1COCC2" no

Look up the recorded call for "COc1ccc2[nH]cc(-c3cc4nc(-c5cn(C)c6ncccc56)cc(N)n4n3)c2c1" in this test. no

Outcome? "CC(C)C[C@H](NC(=O)[C@@H]1CCCCCCCCCCC(=O)N[C@@H](CC(=O)N2CCC[C@@H]2C2CCCC2)C(=O)N1)B(O)O" yes
